Entry source: patent US20260138990A1

- study.target: human CD38 (Homo sapiens)
- protocol.summary: NAD+ cyclase activity assay with human recombinant CD38 protein (ε-NAD fluorescence)
- assay.conditions: 1.9 nM human CD38, substrate ε-NAD, 30 min preincubation, fluorescence 300/410 nm
pIC50: −log10 of the molar value.
We begin with a simple list: items and their reported pIC50.
property.name: pIC50

compound	property.name	test.result
O=C(N[C@@H]1CCCOC1)c1ccc2[nH]c(=O)c3cncn3c2c1 [Compound 13A]	pIC50	< 6.00
O=C(NC1CCC(F)(F)CC1)c1cc(F)c2c(c1)-c1cncn1CCO2 [Compound 73A]	pIC50	> 7.52
CC1(NC(=O)c2cc(F)c3c(c2)-c2cncn2CCO3)CCS(=O)(=O)C1 (centres unmarked) [Compound 169A]	pIC50	7.00 to 7.52
COCCO[C@H]1CC[C@H](NC(=O)c2cc(C)c3c(c2)-c2cncn2CCO3)CC1 [Compound 53A]	pIC50	> 7.52
O=C(N[C@H]1CCc2ccccc21)c1ccc2c(c1)-c1cncn1CCO2	pIC50	> 7.52
O=C(N[C@@H]1CCC(F)(F)C1)c1ccc2c(c1)-c1cncn1CCO2 [Compound 92A]	pIC50	> 7.52
CS(=O)(=O)c1cc(NC(=O)c2ccc3c(c2)-c2cncn2CCO3)ccc1F [Compound 21A]	pIC50	> 7.52
O=C(Nc1ccc2ncsc2c1)c1ccc2c(c1)-c1cncn1CCO2 [Compound 41A]	pIC50	> 7.52

* * *

- study.target: mouse CD38 (Mus musculus, UniProt P56528)
- protocol.summary: NAD+ cyclase activity assay with mouse recombinant CD38 protein (ε-NAD fluorescence)
- assay.conditions: 0.6 nM mouse CD38, substrate ε-NAD, 30 min preincubation, fluorescence 300/410 nm
pIC50: −log10 of the molar value.

compound	pIC50
O=C(N[C@H]1CC[C@H](OC2CC(F)(F)C2)CC1)c1cc(F)c2c(c1)-c1cncn1CCO2 [Compound 166A]	8.00 to 9.00
O=C(N[C@H]1CC[C@H](C(=O)NCC(F)(F)F)CC1)c1ccc2c(c1)-c1cncn1CCO2 [Compound 61A]	> 9.00
O=C(N[C@H]1CC[C@H](O[C@H]2C[C@H](F)C2)CC1)c1ccc2c(c1)-c1cncn1CCO2 [Compound 148A]	8.00 to 9.00
O=C(N[C@@H]1CCC(F)(F)C1)c1cc(Cl)c2c(c1)-c1cncn1CCO2 [Compound 112A]	> 9.00
O=C(N[C@H]1CC[C@@H](OCC(F)(F)F)CC1)c1ccc2c(c1)-c1cncn1CCO2 [Compound 123A]	7.00 to 8.00
O=C(Nc1cnc2c(c1)OCCO2)c1cc(F)c2c(c1)-c1cncn1CCO2 [Compound 97A]	> 9.00
CC(C)(O)[C@H]1CC[C@H](NC(=O)c2cc(F)c3c(c2)-c2cncn2CCO3)CC1 [Compound 114A]	> 9.00
O=C(N[C@H]1CC[C@H](N2CC(C(F)(F)F)C2)CC1)c1ccc2c(c1)-c1cncn1CCO2 [Compound 107A]	8.00 to 9.00

* * *

- study.target: UniProt:P56528
- Sequence (P56528 1-304): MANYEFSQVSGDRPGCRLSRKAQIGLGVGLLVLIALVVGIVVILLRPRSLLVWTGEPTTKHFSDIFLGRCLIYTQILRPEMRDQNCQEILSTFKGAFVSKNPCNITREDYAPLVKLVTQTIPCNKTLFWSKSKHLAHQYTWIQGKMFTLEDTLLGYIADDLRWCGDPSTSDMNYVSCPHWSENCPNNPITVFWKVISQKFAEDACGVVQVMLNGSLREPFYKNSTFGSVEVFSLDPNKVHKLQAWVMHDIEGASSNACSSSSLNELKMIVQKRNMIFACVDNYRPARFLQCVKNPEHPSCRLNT
- protocol.summary: NAD+ cyclase activity assay with mouse recombinant CD38 protein (ε-NAD fluorescence)
- assay.conditions: 0.6 nM mouse CD38, substrate ε-NAD, 30 min preincubation, fluorescence 300/410 nm

compound	IC50
O=C(N[C@@H]1CCCOC1)c1cc(F)c2c(c1)-c1cncn1CCO2 [Compound 130A]	1 to 10 nM
COCCOc1ncc(NC(=O)c2ccc3c(c2)-c2cncn2CCO3)cn1 [Compound 81A]	1 to 10 nM
CC(C)(CO[C@H]1CC[C@H](NC(=O)c2ccc3c(c2)-c2cncn2CCO3)CC1)C(F)(F)F [Compound 120A]	1 to 10 nM
O=C(Nc1cnc2c(c1)OCCO2)c1ccc2c(c1)-c1cncn1CCO2 [Compound 31A]	1 to 10 nM
O=C(Nc1ccc(C(F)(F)F)nc1)c1ccc2c(c1)-c1cncn1CCO2 [Compound 10A]	1 to 10 nM
O=C(Nc1cnc(N2CC(C(F)F)C2)nc1)c1ccc2c(c1)-c1cncn1CCO2 [Compound 124A]	10 to 100 nM
CS(=O)(=O)c1cc(NC(=O)c2ccc3c(c2)-c2cncn2CCO3)ccc1F [Compound 21A]	< 1 nM
O=C(N[C@H]1CC[C@H](C(F)(F)F)CC1)c1ccc2c(c1)-c1cncn1CCO2 [Compound 52A]	1 to 10 nM

* * *

We begin with a simple list: items and their reported IC50.
- study.target: human CD38 (Homo sapiens, UniProt P28907)
- Sequence (P28907 whole entry): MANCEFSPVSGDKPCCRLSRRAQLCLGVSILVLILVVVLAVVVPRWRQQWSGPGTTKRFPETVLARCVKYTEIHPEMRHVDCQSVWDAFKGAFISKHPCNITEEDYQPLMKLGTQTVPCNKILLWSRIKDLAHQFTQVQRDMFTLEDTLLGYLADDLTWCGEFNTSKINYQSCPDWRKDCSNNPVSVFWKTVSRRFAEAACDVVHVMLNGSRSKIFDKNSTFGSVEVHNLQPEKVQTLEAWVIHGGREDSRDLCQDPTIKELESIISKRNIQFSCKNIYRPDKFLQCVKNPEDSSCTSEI
- protocol.summary: NAD+ cyclase activity assay with human recombinant CD38 protein (ε-NAD fluorescence)
- assay.conditions: 1.9 nM human CD38, substrate ε-NAD, 30 min preincubation, fluorescence 300/410 nm

compound	IC50
COCCO[C@H]1CC[C@H](NC(=O)c2cc3c(c(Cl)c2C)OCCn2cncc2-3)CC1 [Compound 191A]	30 to 100 nM
CC(C)(CO[C@H]1CC[C@@H](NC(=O)c2cc(F)c3c(c2)-c2cncn2CCO3)CC1)C(F)(F)F [Compound 168A]	100 to 1000 nM
O=C(N[C@@H]1CCC(F)(F)C1)c1cc(F)c2c(c1)-c1cncn1CCO2 [Compound 108A]	< 30 nM
COc1nc2cc(NC(=O)c3ccc4c(c3)-c3cncn3CCO4)ccc2s1 [Compound 44A]	< 30 nM
CC1COc2ccc(C(=O)N[C@@H]3CCCOC3)cc2-c2cncn21 (stereo partly shown) [Compound 68A]	100 to 1000 nM
CCCS(=O)(=O)N[C@H]1CC[C@H](NC(=O)c2ccc3c(c2)-c2cncn2CCO3)CC1 [Compound 37A]	< 30 nM
O=C(N[C@H]1CC[C@H](CO)CC1)c1ccc2c(c1)-c1cncn1CCO2 [Compound 65A]	< 30 nM
O=C(NC1CCC1(F)F)c1ccc2c(c1)-c1cncn1CCO2 (stereo not shown) [Compound 139A]	< 30 nM
O=C(NC1CCC(F)(F)CC1)c1cc2c(c(F)c1F)OCCn1cncc1-2 [Compound 154A]	< 30 nM
COCCO[C@H]1CC[C@H](NC(=O)c2cc(F)c3c(c2F)-c2cncn2CCO3)CC1 [Compound 91A]	30 to 100 nM
O=C(NC1CCC(CC(F)(F)F)CC1)c1cc(F)c2c(c1)-c1cncn1CCO2 (stereo not shown) [Compound 164A]	< 30 nM
O=C(N[C@H]1CC[C@@H](O[C@H]2C[C@H](F)C2)CC1)c1ccc2c(c1)-c1cncn1CCO2 [Compound 150A]	100 to 1000 nM
O=C(N[C@H]1CC[C@@H](OC2CC(F)(F)C2)CC1)c1ccc2c(c1)-c1cncn1CCO2 [Compound 153A]	100 to 1000 nM
O=C(N[C@@H]1CCCOC1)c1ccc2c(c1)-c1cncn1CCCO2 [Compound 26A]	100 to 1000 nM
CS(=O)(=O)CCCO[C@H]1CC[C@@H](NC(=O)c2ccc3c(c2)-c2cncn2CCO3)CC1 [Compound 86A]	100 to 1000 nM
O=C(N[C@H]1CC[C@H](N2CC(C(F)(F)F)C2)CC1)c1ccc2c(c1)-c1cncn1CCO2 [Compound 107A]	30 to 100 nM

* * *

- study.target: human CD38 (Homo sapiens)
- protocol.summary: NAD+ cyclase activity assay with human recombinant CD38 protein (ε-NAD fluorescence)
- assay.conditions: 1.9 nM human CD38, substrate ε-NAD, 30 min preincubation, fluorescence 300/410 nm
pIC50: −log10 of the molar value.
We begin with a simple list: items and their reported pIC50.

compound	pIC50
C[C@@H]1CCC[C@@H](C)C1NC(=O)c1cc(F)c2c(c1)-c1cncn1CCO2 (relative stereo) [Compound 177A]	> 7.52
Cn1ccc(NC(=O)c2ccc3c(c2)-c2cncn2CCO3)cc1=O [Compound 36A]	> 7.52
O=C(NC1CCC(F)(F)C1)c1ccc2c(c1)-c1cncn1CCO2 (centres unmarked) [Compound 66A]	> 7.52
O=C(Nc1ccc2c(c1)CCS2(=O)=O)c1ccc2c(c1)-c1cncn1CCO2 [Compound 19A]	> 7.52
O=C(N[C@H]1CC[C@@H](N2CCC(F)(F)C2)CC1)c1ccc2c(c1)-c1cncn1CCO2 [Compound 69A]	6.00 to 7.00
CC1(C)CC(NC(=O)c2ccc3c(c2)-c2cncn2CCO3)C1 [Compound 141A]	> 7.52
O=C(Nc1ccc2scnc2c1)c1ccc2c(c1)-c1cncn1CCO2 [Compound 7A]	> 7.52
COCCO[C@H]1CC[C@H](NC(=O)c2cc3c(c(C4CC4)c2)OCCn2cncc2-3)CC1 [Compound 50A]	7.00 to 7.52
